target: T1, human CD3 on CD3+ Jurkat cells (human, UniProt P07766 23-207); experiment: flow cytometry, yeast-produced IgG 100 nM on CD3+ Jurkat cells, pH 7.4
T1 construct: whole, on cells; The whole CD3 complex stands on the cells; also called Human CD3 Jurkat; human CD3+ Jurkat cells
T1 sequence (P07766 23-207): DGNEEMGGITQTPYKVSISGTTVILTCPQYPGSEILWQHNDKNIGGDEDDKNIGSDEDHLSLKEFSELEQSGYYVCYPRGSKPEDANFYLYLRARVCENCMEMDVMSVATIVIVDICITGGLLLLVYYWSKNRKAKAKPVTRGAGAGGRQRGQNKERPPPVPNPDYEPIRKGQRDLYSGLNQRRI
attributeMeasured: NCB

# annotated cases, reported NCB shown
ADI-79842 (Antibody No. 7), human IgG1 (antibody, V domains shown, Tested as yeast-produced aglycosylated human IgG1) VH: QVQLVQSGAEVKKPGASVKVSCKASGFNIKDYYMHWVRQAPGQRLEWMGWIDLENANTIYDAKFQGRVTITRDTSASTAYMELSSLRSEDTAVYYCARDHYGRYFYDVWGQGTLVTVSS VL: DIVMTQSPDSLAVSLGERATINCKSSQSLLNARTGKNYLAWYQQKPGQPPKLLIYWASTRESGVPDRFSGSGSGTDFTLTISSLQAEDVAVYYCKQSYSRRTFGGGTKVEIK; 139
ADI-79844 (Antibody No. 10), human IgG1 (antibody, V domains shown, Tested as yeast-produced aglycosylated human IgG1) VH: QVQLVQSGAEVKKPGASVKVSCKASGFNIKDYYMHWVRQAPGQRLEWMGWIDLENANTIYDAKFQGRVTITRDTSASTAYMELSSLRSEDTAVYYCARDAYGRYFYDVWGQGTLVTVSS VL: DIVMTQSPDSLAVSLGERATINCKSSQSLLNARTGKNYLAWYQQKPGQPPKLLIYWASTRESGVPDRFSGSGSGTDFTLTISSLQAEDVAVYYCKQSHSRRTFGGGTKVEIK; 147

Kindly consider the entry below.
Request: Need NCB of ADI-79843 (Antibody No. 8), human IgG1 (antibody, V domains shown, Tested as yeast-produced aglycosylated human IgG1) VH: QVQLVQSGAEVKKPGASVKVSCKASGFNIKDYYMHWVRQAPGQRLEWMGWIDLENANTIYDAKFQGRVTITRDTSASTAYMELSSLRSEDTAVYYCARDAYHRYFYDVWGQGTLVTVSS VL: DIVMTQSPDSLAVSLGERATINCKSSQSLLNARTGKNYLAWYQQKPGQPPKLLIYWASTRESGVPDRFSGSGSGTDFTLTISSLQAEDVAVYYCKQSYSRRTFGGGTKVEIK , thanks.
Response: 149

Where do these numbers come from? They come from patent US20260152557A1.
